biological target: biotinylated labeled human GPC3 protein (produced in-house) (human, UniProt P51654 25-559, limits assumed, biotinylated (Dojindo, Cat. No. LK03); sites not stated); assay: ELISA, biotinylated human GPC3 protein
Listed here are binders together with their documented OD450 at 0.0008 nM.
parameter.measured: OD450 at 0.0008 nM

[[record]]
binder = "hAb006LH2L1b (antibody, human IgG1, V domains shown, Humanized F3.38.7; VH H2 + VL L1b; expressed as human IgG1) VH: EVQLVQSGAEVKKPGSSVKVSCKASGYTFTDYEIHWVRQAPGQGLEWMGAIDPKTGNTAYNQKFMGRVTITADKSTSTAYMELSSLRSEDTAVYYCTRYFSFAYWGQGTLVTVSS VL: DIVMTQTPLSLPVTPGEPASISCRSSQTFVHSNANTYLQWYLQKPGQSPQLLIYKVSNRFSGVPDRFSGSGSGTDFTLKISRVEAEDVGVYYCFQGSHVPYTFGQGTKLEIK"
parameter_measured = "OD450 at 0.0008 nM"
measured_value = "0.16 OD450"

[[record]]
binder = "hAb005LH3L1a (antibody, human IgG1, V domains shown, Humanized F3.54.12; VH H3 + VL L1a; expressed as human IgG1) VH: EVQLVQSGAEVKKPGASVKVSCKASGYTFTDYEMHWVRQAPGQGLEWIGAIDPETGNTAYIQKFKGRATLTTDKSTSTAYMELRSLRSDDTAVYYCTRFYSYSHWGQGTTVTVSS VL: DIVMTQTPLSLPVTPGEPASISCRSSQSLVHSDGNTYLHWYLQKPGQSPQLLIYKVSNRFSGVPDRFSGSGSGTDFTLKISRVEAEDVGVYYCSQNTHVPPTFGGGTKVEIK"
parameter_measured = "OD450 at 0.0008 nM"
measured_value = "0.047 OD450"

[[record]]
binder = "hAb003LH2L1b (antibody, human IgG1, V domains shown, Humanized F2.154.1; VH H2 + VL L1b; expressed as human IgG1) VH: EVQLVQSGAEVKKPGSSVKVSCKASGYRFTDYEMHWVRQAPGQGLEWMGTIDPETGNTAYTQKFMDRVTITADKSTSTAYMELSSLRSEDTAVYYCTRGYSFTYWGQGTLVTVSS VL: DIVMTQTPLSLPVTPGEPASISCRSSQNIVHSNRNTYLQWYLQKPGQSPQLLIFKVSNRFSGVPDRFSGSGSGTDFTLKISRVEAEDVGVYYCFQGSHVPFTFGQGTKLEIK"
parameter_measured = "OD450 at 0.0008 nM"
measured_value = "0.171 OD450"

[[record]]
binder = "hAb006LH1L1a (antibody, human IgG1, V domains shown, Humanized F3.38.7; VH H1 + VL L1a; expressed as human IgG1) VH: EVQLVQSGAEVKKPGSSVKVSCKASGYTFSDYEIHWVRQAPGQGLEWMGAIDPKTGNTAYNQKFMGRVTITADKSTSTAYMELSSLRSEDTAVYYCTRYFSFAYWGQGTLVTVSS VL: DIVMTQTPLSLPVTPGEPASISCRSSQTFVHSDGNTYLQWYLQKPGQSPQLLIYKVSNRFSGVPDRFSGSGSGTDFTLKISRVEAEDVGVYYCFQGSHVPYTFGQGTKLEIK"
parameter_measured = "OD450 at 0.0008 nM"
measured_value = "0.076 OD450"

[[record]]
binder = "hAb007LH1L1b (antibody, human IgG1, V domains shown, Humanized F3.81.19; VH H1 + VL L1b; expressed as human IgG1) VH: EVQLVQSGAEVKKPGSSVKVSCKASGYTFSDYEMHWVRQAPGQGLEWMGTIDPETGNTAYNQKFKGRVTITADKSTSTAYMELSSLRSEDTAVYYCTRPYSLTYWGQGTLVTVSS VL: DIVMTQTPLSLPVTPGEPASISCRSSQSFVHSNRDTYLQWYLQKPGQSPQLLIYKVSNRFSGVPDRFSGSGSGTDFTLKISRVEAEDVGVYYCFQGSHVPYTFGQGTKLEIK"
parameter_measured = "OD450 at 0.0008 nM"
measured_value = "0.099 OD450"

